Substrate: O=[N+]([O-])c1ccc2c(c1)OCO2
Assay: purified protein
Assay type: biochemical, Cyclocybe aegerita
Conditions: H2O2 1 mM, potassium phosphate 50 mM pH 7.0, 20% v/v acetonitrile
observable: kcat/Km

[[record]]
protein = "PaDa-I (AaeUPO variant) (Cyclocybe aegerita; F119A/F234A/F354L/I291V/L110F/V100A/V118I) (protein, laboratory-evolved secreted variant; plasmid pJRoC30-PaDa-I in Saccharomyces cerevisiae BJ5465, purified; only F311L given; recalled mature changes V57A/L67F/V75I/I248V/F311L (plus signal peptide F12Y/A14V/R15G/A21D); heme-thiolate, N-glycosylated) EPGLPPGPLENSSAKLVNDEAHPWKPLRPGDIRGPCPGLNTLASHGYLPRNGVATPAQIINAVQEGFNFDNQAAIAATYAAHLVDGNLITDLLSIGRKTRLTGPDPPPPASVGGLNEHGTFEGDASMTRGDAFFGNNHDFNETLFEQLVDYSNRFGGGKYNLTVAGELRFKRIQDSIATNPNFSFVDFRFATAYGETTFPANLFVDGRRDDGQLDMDAARSFFQFSRMPDDFFRAPSPRSGTGVEVVVQAHPMQPGRNVGKINSYTVDPTSSDFSTPCLMYEKFVNITVKSLYPNPTVQLRKALNTNLDFLFQGVAAGCTQVFPYGRD"
observed_result = "186000 M⁻¹ s⁻¹"

[[record]]
protein = "PaDa-I (AaeUPO variant) (Cyclocybe aegerita; F119A/F354L/I291V/L110F/V100A/V118I) (protein, laboratory-evolved secreted variant; plasmid pJRoC30-PaDa-I in Saccharomyces cerevisiae BJ5465, purified; only F311L given; recalled mature changes V57A/L67F/V75I/I248V/F311L (plus signal peptide F12Y/A14V/R15G/A21D); heme-thiolate, N-glycosylated) EPGLPPGPLENSSAKLVNDEAHPWKPLRPGDIRGPCPGLNTLASHGYLPRNGVATPAQIINAVQEGFNFDNQAAIAATYAAHLVDGNLITDLLSIGRKTRLTGPDPPPPASVGGLNEHGTFEGDASMTRGDAFFGNNHDFNETLFEQLVDYSNRFGGGKYNLTVAGELRFKRIQDSIATNPNFSFVDFRFFTAYGETTFPANLFVDGRRDDGQLDMDAARSFFQFSRMPDDFFRAPSPRSGTGVEVVVQAHPMQPGRNVGKINSYTVDPTSSDFSTPCLMYEKFVNITVKSLYPNPTVQLRKALNTNLDFLFQGVAAGCTQVFPYGRD"
observed_result = "257000 M⁻¹ s⁻¹"

